Listed here: items and their measured Kd.
- system_under_test: T1, human transferrin receptor (TfR) ectodomain (ECD) (human, UniProt P02786 121-760, biotinylated where captured on streptavidin)
- T1 construct: also called human TfR; huTfR
- assay_text: SPR (Biacore), same protocol as previously described; form of human TfR not stated
Express it in nM; write the number only.

Some binders with known Kd results, for comparison:
- binder: "Clone CH3C.35.S413 (designed binder) PCPAPELLGGPSVFLFPPKPKDTLMISRTPEVTCVVVDVSHEDPEVKFNWYVDGVEVHNAKTKPREEQYNSTYRVVSVLTVLHQDWLNGKEYKCKVSNKALPAPIEKTISKAKGQPREPQVYTLPPSRDELTKNQVSLTCLVKGFYPSDIAVEWESYGTEWSSYKTTPPVLDSDGSFFLYSKLTVSKSEWQQGFVFSCSVMHEALHNHYTQKSLSLSPGK"
  test_readout: "Kd"
  display_unit: "nM"
  value: 1700
- binder: "Clone CH3C.35.23.1.1 (designed binder) PCPAPELLGGPSVFLFPPKPKDTLMISRTPEVTCVVVDVSHEDPEVKFNWYVDGVEVHNAKTKPREEQYNSTYRVVSVLTVLHQDWLNGKEYKCKVSNKALPAPIEKTISKAKGQPREPQVYTLPPSRDELTKNQVSLTCLVKGFYPSDIAVEWESFGTEWSNYKTTPPVLDSDGSFFLYSKLTVSKEEWQQGFVFSCSVMHEALHNHYTQKSLSLSPGK"
  test_readout: "Kd"
  display_unit: "nM"
  value: 750
- binder: "Clone CH3C.35.23.3.1 (designed binder) PCPAPELLGGPSVFLFPPKPKDTLMISRTPEVTCVVVDVSHEDPEVKFNWYVDGVEVHNAKTKPREEQYNSTYRVVSVLTVLHQDWLNGKEYKCKVSNKALPAPIEKTISKAKGQPREPQVYTLPPSRDELTKNQVSLTCLVKGFYPSDIAVEWESYGTEWVNYKTTPPVLDSDGSFFLYSKLTVSKEEWQQGFVFSCSVMHEALHNHYTQKSLSLSPGK"
  test_readout: "Kd"
  display_unit: "nM"
  value: 1900
- binder: "Clone CH3C.35.20.1.1 (designed binder) PCPAPELLGGPSVFLFPPKPKDTLMISRTPEVTCVVVDVSHEDPEVKFNWYVDGVEVHNAKTKPREEQYNSTYRVVSVLTVLHQDWLNGKEYKCKVSNKALPAPIEKTISKAKGQPREPQVYTLPPSRDELTKNQVSLTCLVKGFYPSDIAVEWESFGTEWSSYKTTPPVLDSDGSFFLYSKLTVSKEEWQQGFVFSCSVMHEALHNHYTQKSLSLSPGK"
  test_readout: "Kd"
  display_unit: "nM"
  value: 620
- binder: "Clone CH3C.35.N390.1 (designed binder) PCPAPELLGGPSVFLFPPKPKDTLMISRTPEVTCVVVDVSHEDPEVKFNWYVDGVEVHNAKTKPREEQYNSTYRVVSVLTVLHQDWLNGKEYKCKVSNKALPAPIEKTISKAKGQPREPQVYTLPPSRDELTKNQVSLTCLVKGFYPSDIAVEWESYGTEWSNYKTTPPVLDSDGSFFLYSKLTVSKSEWQQGFVFSCSVMHEALHNHYTQKSLSLSPGK"
  test_readout: "Kd"
  display_unit: "nM"
  value: 2000
- binder: "Clone CH3C.35.23.6.1 (designed binder) PCPAPELLGGPSVFLFPPKPKDTLMISRTPEVTCVVVDVSHEDPEVKFNWYVDGVEVHNAKTKPREEQYNSTYRVVSVLTVLHQDWLNGKEYKCKVSNKALPAPIEKTISKAKGQPREPQVYTLPPSRDELTKNQVSLTCLVKGFYPSDIAVEWESFGTEWVNYKTTPPVLDSDGSFFLYSKLTVSKEEWQQGFVFSCSVMHEALHNHYTQKSLSLSPGK"
  test_readout: "Kd"
  display_unit: "nM"
  value: 2100

Looking up Clone CH3C.35.23.2.1 (designed binder) PCPAPELLGGPSVFLFPPKPKDTLMISRTPEVTCVVVDVSHEDPEVKFNWYVDGVEVHNAKTKPREEQYNSTYRVVSVLTVLHQDWLNGKEYKCKVSNKALPAPIEKTISKAKGQPREPQVYTLPPSRDELTKNQVSLTCLVKGFYPSDIAVEWESYGTEWANYKTTPPVLDSDGSFFLYSKLTVSKSEWQQGFVFSCSVMHEALHNHYTQKSLSLSPGK , I found its Kd recorded as 690
